- Test system: AN3-CA
- Assay Info: MTS Assay, cell proliferation analysis (AN3-CA)
- Type: cell-based
- Conditions Used: Homo sapiens; AN3-CA cells; 72 hours; 10 Percent FBS
Measure: IC50

Some molecules with recorded IC50:
{"columns": ["Entry Smiles", "Tested System", "Reading"],
 "data": [
  ["O=S(=O)(NC1(c2ccc(-c3nnc4n3-c3cccnc3Nc3ccccc3-4)cc2)CCC1)c1ccccc1", "AN3-CA", "16 µM"],
  ["COc1cccc(NC(=O)NCc2ccc(-c3nnc4n3-c3cccnc3Nc3ccccc3-4)cc2)c1", "AN3-CA", "48 µM"]
]}

Ask: // fetch IC50; item: Cc1cccc(S(=O)(=O)NCc2ccc(-c3nnc4n3-c3cccnc3Nc3ccccc3-4)cc2)c1 ; system: AN3-CA
Result: 28 µM

Ask: // fetch IC50; item: COc1cccc(C(=O)Nc2ccc(-c3nnc4n3-c3cccnc3Nc3ccccc3-4)cc2)c1 ; system: AN3-CA
Result: 25 µM

Ask: // fetch IC50; item: Brc1ccc2c(c1)-c1nnc(-c3ccc(CN4CCC(c5nnc(-c6ccccn6)[nH]5)CC4)cc3)n1-c1cccnc1N2 ; system: AN3-CA
Result: 56 µM

Ask: // fetch IC50; item: c1ccc(-c2nnc(C3CCN(Cc4ccc(-c5nnc6n5-c5cccnc5Nc5ccccc5-6)cc4)CC3)[nH]2)nc1 ; system: AN3-CA
Result: 34 µM

Ask: // fetch IC50; item: O=S(=O)(NC1CCN(Cc2ccc(-c3nnc4n3-c3cccnc3Nc3ccccc3-4)cc2)CC1)c1ccc2c(c1)OCCO2 ; system: AN3-CA
Result: 20 µM
